Hello, the source for this data is patent US20260083865A1, in case you need it.

Recorded AUC ratio [T/K] by entry
- Tested on: PC3-PIP tumor model
- Parameters: species or system mice
- RECORDED_CONDITIONS: mouse, in vivo
Numbered stars: 1 amine (or outer) side, 2 acyl side, 3 side chain; on linkers, the order of the positions; unused ones are H or OH. Bridge positions count the residues as written; N and C are the ends. Square brackets hold non-standard residues; d marks the D form. Peptide text beside a SMILES is read from it. * marks the point of attachment. X2 = O=C(O)CN1CCN(CC(=O)O)CCN([C@H](CCC(=O)*)C(=O)O)CCN(CC(=O)O)CC1; DOTA = O=C(O)CN1CCN(CC(=O)O)CCN(CC(=O)*)CCN(CC(=O)O)CC1; Phe(4-Cl) = N[C@@H](Cc1ccc(Cl)cc1)C(=O)O; Ethylenediamine = C(CN[*:2])N[*:1]; X1 = O=C(CC1CCN([*:1])CC1)[*:2]; Tle = CC(C)(C)[C@H](N)C(=O)O; Aib = CC(C)(N)C(=O)O
I'd appreciate a reply containing only the number, no unit.

>>> number("CC(=O)N[C@H](C(=O)NC(C)(C)C(=O)N[C@@H](Cc1ccccc1)C(=O)N[C@H]1CSSC[C@@H](C(=O)N[C@H](C(=O)N[C@H](C(=O)N2CCC(CC(=O)N[C@H](CCCCNC(=O)CC[C@H](C(=O)O)N3CCN(CC(=O)O)CCN(CC(=O)O)CCN(CC(=O)O)CC3)C(N)=O)CC2)[C@@H](C)O)C(C)(C)C)NC(=O)[C@H](CC(N)=O)NC(=O)C(C)(C)NC(=O)[C@H](CCCNC(=N)N)NC(=O)[C@H](CCCCN)NC1=O)[C@@H](C)O [PSM-0339] (Ac-T[Aib]FCKR[Aib]NC[Tle]T[X1][dK](X2)-NH2; disulfide 4-9)")
1.2

API: the following record is the query input.
Param readout = AUC ratio [T/K]; param system = PC3-PIP tumor model; param query = C[C@@H](O)[C@H](NC(=O)CC1CCN(C(=O)CN2CCN(CC(=O)O)CCN(CC(=O)O)CCN(CC(=O)O)CC2)CC1)C(=O)NC(C)(C)C(=O)N[C@@H](Cc1ccc(Cl)cc1)C(=O)N[C@H]1CSSC[C@@H](C(=O)N[C@H](C(=O)NCCN)C(C)(C)C)NC(=O)[C@H](CC(N)=O)NC(=O)C(C)(C)NC(=O)[C@H](CCCNC(=N)N)NC(=O)[C@H](CCCCN)NC1=O [PSM-0384] ({DOTA}-[X1]T[Aib][Phe(4-Cl)]CKR[Aib]NC[Tle]-Ethylenediamine; disulfide 5-10) ; response: value
0.30
